// data source = ChEMBL document CHEMBL3217594

# key: entry, value: IC50
# System name: Lethal(3)malignant brain tumor-like protein 3 (Homo sapiens, UniProt Q96JM7)
# Sequence (Q96JM7 whole entry): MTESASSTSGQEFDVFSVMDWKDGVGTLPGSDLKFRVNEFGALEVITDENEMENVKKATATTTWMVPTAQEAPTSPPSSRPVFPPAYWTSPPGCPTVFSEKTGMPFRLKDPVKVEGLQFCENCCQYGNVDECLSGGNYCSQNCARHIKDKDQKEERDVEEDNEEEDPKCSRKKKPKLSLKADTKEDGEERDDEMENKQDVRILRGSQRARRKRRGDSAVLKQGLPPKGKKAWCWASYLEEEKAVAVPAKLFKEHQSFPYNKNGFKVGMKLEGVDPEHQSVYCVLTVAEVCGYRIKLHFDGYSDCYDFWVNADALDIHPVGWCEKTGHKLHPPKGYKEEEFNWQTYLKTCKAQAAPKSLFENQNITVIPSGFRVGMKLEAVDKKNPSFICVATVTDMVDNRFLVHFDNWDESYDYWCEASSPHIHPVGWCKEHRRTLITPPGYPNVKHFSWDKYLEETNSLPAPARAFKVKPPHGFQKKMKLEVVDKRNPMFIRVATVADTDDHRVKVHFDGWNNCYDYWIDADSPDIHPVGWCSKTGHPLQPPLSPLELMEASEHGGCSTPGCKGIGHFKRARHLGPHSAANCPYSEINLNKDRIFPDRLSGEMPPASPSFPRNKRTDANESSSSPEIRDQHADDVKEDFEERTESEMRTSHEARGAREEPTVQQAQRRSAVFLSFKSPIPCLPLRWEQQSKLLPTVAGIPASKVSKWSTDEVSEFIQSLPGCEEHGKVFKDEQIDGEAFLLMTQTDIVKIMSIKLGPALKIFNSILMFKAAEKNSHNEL
# Experiment description: Antagonist activity at His-tagged L3MBTL3 (unknown origin) assessed as inhibition of L3MBTL3/biotinylated H4K20Me2 peptide interaction after 30 mins by AlphaScreen assay
Readout: IC50

INSERT INTO assay_data (compound, readout, data_value) VALUES
  ('C[N+]1(C2CCN(C(=O)c3cccc(Br)c3)CC2)CCCC1', 'IC50', '> 30 µM'),
  ('CN(C)C1CCN(C(=O)c2cccc(Br)c2)CC1', 'IC50', '> 30 µM'),
  ('O=C(c1cccc(Br)c1)N1CCC(N2CCCC2)C1 (stereo not drawn)', 'IC50', '> 30 µM');
